# ASSAY TARGET: human TLR9 (Homo sapiens (Human), UniProt Q9NR96)
# Sequence (Q9NR96 26-1032): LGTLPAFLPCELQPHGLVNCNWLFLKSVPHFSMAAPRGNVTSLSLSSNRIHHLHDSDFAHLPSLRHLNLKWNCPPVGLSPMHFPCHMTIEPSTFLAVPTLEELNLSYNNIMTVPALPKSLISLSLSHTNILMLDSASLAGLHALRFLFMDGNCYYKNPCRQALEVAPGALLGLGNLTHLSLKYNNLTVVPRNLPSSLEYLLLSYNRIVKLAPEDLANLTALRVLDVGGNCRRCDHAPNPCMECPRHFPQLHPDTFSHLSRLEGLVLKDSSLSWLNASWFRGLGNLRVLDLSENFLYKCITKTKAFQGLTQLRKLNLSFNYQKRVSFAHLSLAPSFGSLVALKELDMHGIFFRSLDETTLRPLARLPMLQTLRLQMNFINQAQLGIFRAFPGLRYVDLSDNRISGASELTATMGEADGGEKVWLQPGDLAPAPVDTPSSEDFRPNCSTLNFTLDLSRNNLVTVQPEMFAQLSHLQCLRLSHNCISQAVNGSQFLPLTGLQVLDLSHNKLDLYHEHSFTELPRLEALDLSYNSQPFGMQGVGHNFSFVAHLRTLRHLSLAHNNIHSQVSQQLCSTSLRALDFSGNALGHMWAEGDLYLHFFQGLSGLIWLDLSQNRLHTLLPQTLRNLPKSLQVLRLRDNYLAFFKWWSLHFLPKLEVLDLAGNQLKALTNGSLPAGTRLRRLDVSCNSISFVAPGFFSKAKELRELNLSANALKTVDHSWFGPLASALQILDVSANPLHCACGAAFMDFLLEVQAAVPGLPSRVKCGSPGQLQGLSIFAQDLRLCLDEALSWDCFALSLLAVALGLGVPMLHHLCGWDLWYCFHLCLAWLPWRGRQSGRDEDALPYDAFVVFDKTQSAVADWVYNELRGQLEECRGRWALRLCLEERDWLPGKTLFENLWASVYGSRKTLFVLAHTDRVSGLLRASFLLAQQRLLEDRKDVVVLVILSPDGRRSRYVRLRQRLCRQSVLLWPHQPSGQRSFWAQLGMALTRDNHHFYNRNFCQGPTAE
# MEASUREMENT NOTES: TLR9 inhibition reporter assay (HEK-Blue cells, SEAP reporter, ODN2006 stimulation);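 note: compounds tested over 0.05 nM to 50 µM, 22 h incubation, inhibition taken as SEAP signal drop from agonist plus DMSO wells toward a known inhibitor control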
# PARTICULARS: read-out: TLR9 IC50, HEK-Blue cells overexpressing human TLR9, ODN2006 5 nM
PROPERTY: pIC50
Convention used: pIC50 is expressed as -log10 of the molar concentration.

Previously resolved entries follow.
Entry `Cc1cc(-c2[nH]c3ccc(C4CCN(Cc5nncn5C)CC4)cc3c2C(C)C)cc(C)n1` ; pIC50 = 5.59

Entry `Cc1cc(-c2[nH]c3ccc(C4CCN(C(=O)CN(C)Cc5cc(C)on5)CC4)cc3c2C(C)C)cc(C)n1` ; pIC50 = 5.03

Entry Cc1cc(-c2[nH]c3ccc(C4CCN(C(=O)C5CCOC(C(C)C)C5)CC4)cc3c2C(C)C)cc(C)n1 (stereo not drawn) ; pIC50 = 4.95

New cases:
Entry `Cc1cc(-c2[nH]c3ccc(C4CCN(C(=O)C5CCN(C(C)C)CC5)CC4)cc3c2C(C)C)ccn1` ; pIC50 = 5.94

Entry `Cc1cc(-c2[nH]c3ccc(C4CCN(Cc5c[nH]nn5)CC4)cc3c2C(C)C)c(F)cn1` ; pIC50 = 5.59

Entry `CN[C@@H](C)C(=O)N1CCC(c2ccc3[nH]c(-c4cc(C)nc(C)c4)c(C(C)C)c3c2)CC1` ; pIC50 = 6.50

Entry `CO[C@@H]1C[C@H](CO)N(CC(=O)N2CCC(c3ccc4[nH]c(-c5cc(C)nc(C)c5)c(C(C)C)c4c3)CC2)C1` ; pIC50 = 6.00

----------
# ASSAY TARGET: UniProt:Q9NR96
# MEASUREMENT NOTES: TLR9 inhibition reporter assay (HEK-Blue cells, SEAP reporter, ODN2006 stimulation)
# PARTICULARS: read-out: TLR9 IC50, HEK-Blue cells overexpressing human TLR9, ODN2006 5 nM
Kindly apply the following: 1 if IC50 is less than 4000 nM, 0 in every other case.

Known results for molecules:
Is the reported IC50 for Cc1cc(-c2[nH]c3ccc(C4CCN(C(=O)CC5CCOCC5)CC4)cc3c2C(C)C)cc(C)n1 [Example 106] strictly below 4000 nM?
0

Is the reported IC50 for Cc1cc(-c2[nH]c3ccc(C4CCN(Cc5ncon5)CC4)cc3c2C(C)C)c(C)cn1 [Example 734] strictly below 4000 nM?
0

Is the reported IC50 for Cc1cc(-c2[nH]c3ccc(C4CCN(CC(N)=O)CC4)cc3c2C(C)C)c(C)cn1 [Example 651] strictly below 4000 nM?
1

Is the reported IC50 for Cc1cc(-c2[nH]c3ccc(C4CCN(Cc5c[nH]c(C)n5)CC4)cc3c2CC(F)F)cc(C)n1 [Example 538] strictly below 4000 nM?
1

Is the reported IC50 for Cc1nc(CN2CCC(c3ccc4[nH]c(-c5ccnc(C6CC6)c5)c(C(C)C)c4c3)CC2)c[nH]1 [Example 484] strictly below 4000 nM?
1

Is the reported IC50 for Cc1cc(-c2[nH]c3ccc(C4CCN(Cc5cn[nH]c5)CC4)cc3c2C(C)C)cc(C)n1 [Example 438] strictly below 4000 nM?
1

New cases:
Is the reported IC50 for Cc1cc(-c2[nH]c3ccc(C4CCN(C(=O)CNC56CC7CC(CC(C7)C5)C6)CC4)cc3c2C(C)C)cc(C)n1 [Example 342] strictly below 4000 nM?
1
